- Test system: RXF 393 renal
- methodDescription: NCI tumour cell line growth inhibition, 48 h
I'd appreciate it if you could supply TGI values for the items below.

Quick check: TGI of CS(=O)(=O)c1ccc(Oc2nccc(-c3c(-c4ccc(F)cc4)ncn3C3CCNCC3)n2)cc1 ?
> 25 µM

// next record CC1=C2C(=CC(C)(CO)C2O)C(=O)C(C)(O)C12CC2 (centres undefined)
0.00569 µM

// next record COCC1N=C(c2ccc(OC)c(OCc3ccccc3)c2OC)O[C@H]1c1ccccc1 (some centres undefined)
97.3 µM

// next record COC(=O)C(=O)C(C(=O)C(=O)Nc1ccc([N+](=O)[O-])cc1[N+](=O)[O-])c1nc2ccc([N+](=O)[O-])cc2[nH]c1=O (centres undefined)
> 100 µM

// next record COc1cc2c3c(n(CCCO)c(=O)c2cc1OC)-c1cc2c(cc1C3=O)OCO2
> 94.6 µM

// next record O=C1CSC2(CC(/C=C/c3cccc(Br)c3)=NN2c2cccc(S(=O)(=O)O)c2)N1c1nc2ccccc2s1 (centres undefined)
> 100 µM

// next record CCOC(=O)c1nc2cc(F)c(F)cc2nc1NCc1cc(OC)c(OC)c(OC)c1
> 100 µM

// next record COC(=O)C1=C(C(=O)OC)C2(c3ccccc3)c3ccccc3C(=O)C1N2C1CCCCC1 (centres undefined)
> 89 µM

// next record COC(=O)CC(SCCO)SCCO
> 100 µM

* * *

I'd appreciate it if you could supply TGI values for the items below.
- Tested on: TK-10 renal
- methodDescription: NCI tumour cell line growth inhibition, 48 h
Record the value in µM, omitting the unit from your answer.

Quick check: TGI of COc1cc(-c2cc(C(=O)Nc3nc4ccccc4s3)nc3cc(-c4ccccc4)nn23)cc(OC)c1OC ?
32.7

// next record COC(=O)c1ccc(-c2nc3cc(F)c(F)cc3nc2C#N)cc1
42.2

// next record CC[N+](C)(C)c1ccc(C(=C2C=CC(=[N+](C)C)C=C2)c2ccc(N(C)C)cc2)cc1
97.6

// next record COc1ccc2c(CN3CCC(CO)CC3)cc3cc4c(cc3c2c1)OCO4
8.65

// next record CCCOP1(=O)C=C(C)C(Cl)=C(C)C1 (stereo not given)
63.9

* * *

I'd appreciate it if you could supply GI50 values for the items below.
- Test system: HS 578T breast
- methodDescription: NCI tumour cell line growth inhibition, 48 h

Quick check: GI50 of COc1c(O)cc2oc3cc(O)c(CC=C(C)C)c(O)c3c(=O)c2c1C/C=C(\C)CCC=C(C)C ?
7.11 µM

// next record COc1ccc(-n2c(-c3ccc(NC(=O)CCCl)cc3)nnc2-c2cc(OC)c(OC)c(OC)c2)cc1
3.89 µM

// next record Cc1cc(S(=O)(=O)Nc2nnc(-c3ccco3)c(-c3ccco3)n2)c(SCc2ccccc2)cc1Cl
29.7 µM

// next record O=C(Nc1cccc(NS(=O)(=O)c2ccc(F)cc2)c1)c1ccc(-c2ccccc2)cc1
4.68 µM

* * *

- Test system: T-47D breast
- methodDescription: NCI tumour cell line growth inhibition, 48 h
observedProperty: TGI (µM)
Record the value in µM, omitting the unit from your answer.

Quick check: TGI of CCNCCNc1cc(-c2ccc(Cl)cc2)c(C#N)c2nc3ccccc3n12 ?
3.86

// next record COc1ccc2c(c1OC)C(Br)CCC(Br)(Br)C2=O (configuration not stated)
43

// next record COC(=O)/C=C1\SC(=Nc2ccc(C(F)(F)F)cc2)N(CCc2c[nH]c3ccccc23)C1=O
3.17

// next record Cc1cc2c(c(C=Nc3ccc(N(C)C)cc3)c1)OC1(C=C2)Oc2ccccc2C(=O)N1C (configuration not stated)
57.5

// next record O=c1oc2ccccc2c(Cl)c1Cl
6.87

// next record C[C@@H](Oc1cc(-c2cnn(C3CCNCC3)c2)cnc1N)c1c(Cl)ccc(F)c1Cl
7.9
